Organism: Oryctolagus cuniculus
Assay: In vitro inhibition of PAF-induced platelet aggregation in male rabbits
measurement.name: IC50 (nM)
Hi! Could you send only the number? It should be in nM, unit omitted.

State its IC50: N#CC(c1cccnc1)N1CCN(C(=O)C=C(c2ccccc2)c2ccccc2)CC1 (configuration not stated) 10

Continuing:
Look up and state reported IC50 for N#CC(c1cccnc1)N1CCN(C(=O)CC(O)(c2ccccc2)c2ccccc2)CC1 (configuration not stated) 21

---

Biological target: Platelet-activating factor receptor (Rattus norvegicus) (UniProt P46002)
Sequence (P46002 whole entry): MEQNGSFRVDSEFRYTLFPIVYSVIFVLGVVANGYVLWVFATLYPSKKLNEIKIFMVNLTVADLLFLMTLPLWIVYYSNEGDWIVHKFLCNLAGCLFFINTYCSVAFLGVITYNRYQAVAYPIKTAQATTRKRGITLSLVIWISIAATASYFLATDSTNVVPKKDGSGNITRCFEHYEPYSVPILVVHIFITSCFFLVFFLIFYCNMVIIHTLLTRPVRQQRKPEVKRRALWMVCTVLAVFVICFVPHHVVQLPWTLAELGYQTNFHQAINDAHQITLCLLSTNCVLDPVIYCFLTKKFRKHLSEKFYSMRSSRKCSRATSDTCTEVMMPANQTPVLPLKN
Test: Intravenous dose required to reduce the arterial blood pressure caused by PAF by 50% in rats
Assay type: functional
measurement.name: ID50
Returns: string containing the number followed by the unit.

For the compound N#CC(c1cccnc1)N1CCN(C(=O)CNC(c2ccccc2)c2ccccc2)CC1 (stereo not given) , give its measured ID50 value. 0.023 mg/kg

Name the recorded ID50 of the item Cc1ncccc1C(C#N)N1CCN(C(=O)CC(c2ccccc2)N2CCCC2)CC1 (stereo not given) in your answer. 0.22 mg/kg

Answer with the recorded ID50 of Cc1ncccc1C(C#N)N1CCN(C(=O)CC(N)c2ccccc2)CC1 (stereo not given) only. 0.92 mg/kg

Answer with the recorded ID50 of Cc1ncccc1C(C#N)N1CCN(C(=O)CC(c2ccccc2)n2cccc2)CC1 (stereo not given) only. 0.014 mg/kg

Okay, next one:
Input Cc1ncccc1C(C#N)N1CCN(C(=O)/C=C(\c2ccccc2)C(F)(F)F)CC1 (stereo not given) , output reported ID50. 0.12 mg/kg
